molecular target: human ACSS2 (Homo sapiens); construct: The cytosolic fraction of BT474 cells was used as a source of the ACSS2 enzyme; endogenous in cells; assay: ACSS2 enzyme assay (acetyl-CoA formation, LC-MS/MS); settings: cytosolic fraction of BT474 cells as ACSS2 source; 100 μM acetate, CoA and ATP; 2 h at 25° C.; read-out: Enzyme Activity (IC50 range)
Sequence (Q9NR19 whole entry): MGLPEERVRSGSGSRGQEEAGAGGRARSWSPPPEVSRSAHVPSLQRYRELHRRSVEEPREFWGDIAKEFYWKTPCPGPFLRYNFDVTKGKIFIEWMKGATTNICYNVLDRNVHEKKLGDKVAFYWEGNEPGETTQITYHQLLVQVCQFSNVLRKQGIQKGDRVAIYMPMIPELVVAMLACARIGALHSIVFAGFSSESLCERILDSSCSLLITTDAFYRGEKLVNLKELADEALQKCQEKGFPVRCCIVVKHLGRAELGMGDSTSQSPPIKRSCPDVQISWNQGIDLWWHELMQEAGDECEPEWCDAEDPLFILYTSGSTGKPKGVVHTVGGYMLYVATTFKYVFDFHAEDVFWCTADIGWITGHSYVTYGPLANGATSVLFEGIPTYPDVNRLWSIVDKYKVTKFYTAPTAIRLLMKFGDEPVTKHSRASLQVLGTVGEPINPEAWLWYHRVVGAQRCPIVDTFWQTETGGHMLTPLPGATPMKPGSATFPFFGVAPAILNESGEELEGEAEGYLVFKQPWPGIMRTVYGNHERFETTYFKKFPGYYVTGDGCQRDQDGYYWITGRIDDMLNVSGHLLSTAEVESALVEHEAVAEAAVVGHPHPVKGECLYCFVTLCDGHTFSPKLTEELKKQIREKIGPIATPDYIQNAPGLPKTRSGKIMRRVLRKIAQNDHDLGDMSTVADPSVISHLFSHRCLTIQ
Let's look at some compounds and their measured IC50.

Example results:
{"COMPOUND": "CCC(O)CNC(=O)Nc1ccc2nc(-c3cccc(F)c3)c(-c3ccccc3F)cc2c1 (stereo not shown)", "ENDPOINT_VALUE": "< 100 nM"}
{"COMPOUND": "CCC(O)CNC(=O)Nc1ccc2nc(C)c(-c3ccccc3)cc2c1Br (stereo not shown)", "ENDPOINT_VALUE": "< 100 nM"}
{"COMPOUND": "CC[C@@H](O)CNC(=O)Nc1ccc2nc(C)c(-c3ccccc3)c(OC)c2c1", "ENDPOINT_VALUE": "< 100 nM"}

INPUT: Note IC50 for the compound shown: CCC(O)CNC(=O)Nc1ccc2nc(C3CCCCC3)c(-c3ccccc3F)cc2c1 (stereo not shown)
OUTPUT: > 10000 nM
